biological target: His-TEV-DYRK1A Kinase domain (aa127-485) (Homo sapiens); construct: His-TEV-DYRK1A Kinase domain (aa127-485); His (N); TEV cleavage site (N); assay: Kinase ADP assay (ADP Hunter Plus); type: biochemical
Criterion: IC50 strictly less than 0.06 µM. Met: Met. Not met: Not met.

The following molecules have reported results that may help.
Cc1nc(NCc2ccc(-c3ccccn3)s2)c2c(-c3ccnc(N)c3)c[nH]c2n1 [Example 87]: Not met
Cc1nc(CN2CCC(F)(F)C2)c2c(-c3ccnc(N)c3)c[nH]c2n1 [Example 176]: Not met
Cc1cc(-c2c[nH]c3nc(C)nc(NCc4cc(C)on4)c23)ccn1 [Example 47]: Not met
Cc1nc(NCC(F)(F)c2ccccc2)c2c(-c3ccnc(N)c3)c[nH]c2n1 [Example 123]: Not met
Cc1nc(NCc2ccccc2C)c2c(-c3ccnc(N)c3)c[nH]c2n1 [Example 56]: Met
Cc1nc(OCCc2scnc2C)c2c(-c3ccnc(N)c3)c[nH]c2n1 [Example 21]: Met
Cc1nc(/C=C/c2ccccc2)c2c(-c3ccnc(N)c3)c[nH]c2n1 [Example 159]: Met
Cc1nc(N[C@H]2CCc3ccccc32)c2c(-c3ccnc(N)c3)c[nH]c2n1 [Example 77]: Met

(Q) A record lists Cc1nc(N(C)C)c2c(-c3ccnc(N)c3)c[nH]c2n1 [Example 29] . Is its IC50 below 0.06 µM?
(A) Not met

(Q) Next: Cc1nc(N2CCc3ccccc3C2)c2c(-c3ccnc(N)c3)c[nH]c2n1 [Example 96]
(A) Met

(Q) Next: Cc1nc(OCC2CC2)c2c(-c3ccncc3)c[nH]c2n1 [Example 7]
(A) Met
